- Tested on: SK-OV-3 ovarian
- experimental.details: NCI tumour cell line growth inhibition, 48 h
recorded.endpoint: TGI

INSERT INTO measurements (molecule, recorded_endpoint, value_measured) VALUES
  ('COC(=O)c1c(OC(C)=O)ccc2c1c1c(OC(C)=O)c3ccccc3c(OC(C)=O)c1n2Cc1cc(OC)cc(OC)c1', 'TGI', '57.8 µM'),
  ('CC(=O)OCC1OC(n2cc(F)c(=O)[nH]c2=O)C(OC(C)=O)C1OC(C)=O (stereo not drawn)', 'TGI', '> 100 µM'),
  ('Cc1cc2c(cc1-c1cc3c(cc1C)C(C(C)C)=C(O)C(=O)/C3=C\Nc1nc(-c3ccccc3)cs1)/C(=C/Nc1nc(-c3ccccc3)cs1)C(=O)C(O)=C2C(C)C', 'TGI', '95.2 µM'),
  ('CC(C)Oc1cc(OCC(=O)O)cc(C(=O)N(CCC(N)=O)C(=O)Nc2ccc(C(=O)O)cc2OC(C)C)c1', 'TGI', '> 100 µM'),
  ('O=c1[nH]nc(-c2ccccc2)c(-c2ccccc2)c1-n1nc(-c2ccccc2)c2ccccc2c1=O', 'TGI', '> 100 µM'),
  ('COc1cc2c(cc1OCCCC(=O)Nc1cc(C(=O)Nc3cc(C(=O)Nc4cc(C(=O)NCCCN(C)C)n(C)c4)n(C)c3)n(C)c1)N=C[C@@H]1CCCN1C2=O', 'TGI', '28.4 µM'),
  ('Nc1ccc2c(c1)C1Oc3ccccc3CC1CO2 (stereo not drawn)', 'TGI', '> 100 µM'),
  ('[O-][n+]1onc2c3nn(-c4ccccc4)nc3ccc21', 'TGI', '> 100 µM');

====

- Test system: RPMI-8226 leukemia
- experimental.details: NCI tumour cell line growth inhibition, 48 h
Let's look at some compounds and their measured GI50.
recorded.endpoint: GI50

INSERT INTO results (compound, value_measured) VALUES
  ('Cc1cc(Cl)n2c(nc3ccccc32)c1C#N', '231 nM'),
  ('CCN(CC)CCCCCCCCNc1c2ccc(Cl)cc2nc2ccc(OC)cc12', '675 nM'),
  ('CC/C=C/[C@@H]1C=C[C@@H]2CCC[C@H]2[C@@H]1CC[C@H](O)[C@H](C)N', '3070 nM'),
  ('CCN(CC)CCn1c(=N)n(CC(O)c2ccc(Cl)c(Cl)c2)c2ccccc21 (stereo not given)', '2720 nM'),
  ('CCc1nc(N)nc(N)c1-c1ccc(Cl)cc1', '56600 nM');

====

- Test system: HOP-62 NSCLC
- experimental.details: NCI tumour cell line growth inhibition, 48 h; in the data active = GI50 below about 0.43 µM; inactive = the rest
Labels: active, inactive

INSERT INTO results (compound, category_label) VALUES
  ('CC(=O)O[C@@H]1C=CC(=O)C2(CC(=O)O[C@@H]2/C=C(\C)CCC=C(C)C)C1 (some centres undefined)', 'inactive'),
  ('COc1ccc(/C=C2/SC(=Nc3c(C)nn(-c4ccccc4)c3N)NC2=O)cc1', 'inactive'),
  ('Clc1ccc(Cl)c(N/N=C\c2c[nH]c3ccccc23)c1', 'inactive'),
  ('CC(C)Oc1cc(OCC(=O)O)cc(C(=O)N(CCC(N)=O)C(=O)Nc2ccc(C(=O)O)cc2OC(C)C)c1', 'inactive'),
  ('CCOC(=O)c1cnc2ccc(Cl)cc2c1NCCCN(C)C', 'inactive'),
  ('C(=N\Nc1ncc(-c2cc3cc4c(cc3o2)OCO4)s1)/c1c[nH]c2ccccc12', 'inactive'),
  ('Cc1c(CNc2ccc(Cl)c(C(=O)NC(CC(=O)O)C(=O)O)c2)ccc2nc(N)nc(N)c12 (centres undefined)', 'inactive'),
  ('COc1cc[c]([Hg][Cl])cc1', 'inactive'),
  ('Cn1cc(-c2ccc3cc(-c4ccc(CC(=O)Nc5cc(C(C)(C)C)nn5C)cc4)cnc3c2)cn1', 'active');

====

- Tested on: HL-60(TB) leukemia
- experimental.details: NCI tumour cell line growth inhibition, 48 h
Decide using TGI: a value greater than or equal to 40 µM is yes (1), a smaller one is no (0).

INSERT INTO measurements (molecule, category_label) VALUES
  ('O=c1ccc2nc(-c3ccccc3)nn(-c3ccccc3)c-2c1', 'no (0)'),
  ('CC(C)c1ccc2c(c1)CCC1C(C)(C)[C@@H](O)CC[C@]21C (stereo partly drawn)', 'no (0)'),
  ('Cc1cccc2c1C(=O)C1(Cc3ccccc3C1=O)C2 (stereo not drawn)', 'yes (1)'),
  ('CC(=O)NC1(C)CCC(C(C)(C)NC(C)=O)CC1 (stereo not drawn)', 'yes (1)'),
  ('CCSSCS(C)(=O)=O', 'yes (1)'),
  ('CC1CN=C(Nc2cccc(C(F)(F)F)c2)S1 (stereo not drawn)', 'yes (1)'),
  ('CCCC1NC(C#N)(C#N)C(CCC)NC1(C#N)C#N (stereo not drawn)', 'no (0)'),
  ('CC(C)Oc1cc(OCC(=O)O)cc(C(=O)N(CCC(N)=O)C(=O)Nc2ccc(C(=O)O)cc2OC(C)C)c1', 'yes (1)'),
  ('CCc1nc2ccccc2c(=O)n1/N=C(\N=Nc1ccc(Cl)cc1)c1ccc(N(C)C)cc1', 'yes (1)'),
  ('COc1cc(C2c3cc4c(cc3C(O)C3CCC(=O)N23)OCO4)cc(OC)c1OC (stereo not drawn)', 'yes (1)'),
  ('COc1cc2c(cc1OCCCC(=O)Nc1cc(C(=O)Nc3cc(C(=O)Nc4cc(C(=O)NCCCN(C)C)n(C)c4)n(C)c3)n(C)c1)N=C[C@@H]1CCCN1C2=O', 'no (0)'),
  ('COc1ccc(C(=O)CC2(O)C(=O)Nc3c(Cl)ccc(Cl)c32)cc1 (stereo not drawn)', 'no (0)'),
  ('COc1cc(Oc2nc3ccccc3nc2C(=O)O)cc(OC)c1OC', 'yes (1)'),
  ('O=C(Cn1ccnc1[N+](=O)[O-])NCCO', 'yes (1)'),
  ('COc1cc[c]([Hg][Cl])cc1', 'no (0)'),
  ('CCOC(=O)c1c(SC(=O)c2cc(OC)c(OC)c(OC)c2)n(-c2ccccc2)c(=S)n(-c2ccccc2)c1=O', 'yes (1)'),
  ('[O-][n+]1onc2c3nn(-c4ccccc4)nc3ccc21', 'no (0)'),
  ('Oc1ccc2c(c1)-c1c(c3cc(O)ccc3n1CCN1CCOCC1)CC2', 'yes (1)'),
  ('CCN1CCN(C(=O)[C@]23CC[C@@H](C)[C@H](C)[C@@H]2C2=CC[C@@H]4[C@@]5(C)C/C(=C/c6cccnc6)C(=O)C(C)(C)[C@@H]5CC[C@@]4(C)[C@]2(C)CC3)CC1', 'no (0)'),
  ('CN(C)C1(C#N)CCC2(CC1)OCCO2', 'yes (1)'),
  ('COc1cc2c(cc1OC)C1CN3C(=O)CCC3C(O)C1c1cc(OC)c(OC)cc1-2 (stereo not drawn)', 'yes (1)'),
  ('O=C(CC(O)(c1ccccc1)c1ccc(Cl)cc1)NC(=O)c1ccccc1O (stereo not drawn)', 'no (0)');

====

- Test system: COLO 205 colon
- experimental.details: NCI tumour cell line growth inhibition, 48 h
Let's look at some compounds and their measured TGI.
recorded.endpoint: TGI (µM)

INSERT INTO assay_data (compound, study_target, relation_symbol, value_measured) VALUES
  ('CCOC(=O)c1ccc(-c2cc(C)[nH]n2)[nH]1', 'COLO 205 colon', '>', 100),
  ('Clc1ccc(Cl)c(N/N=C\c2c[nH]c3ccccc23)c1', 'COLO 205 colon', '=', 30.4),
  ('CC(=O)O[C@@H]1C=CC(=O)C2(CC(=O)O[C@@H]2/C=C(\C)CCC=C(C)C)C1 (stereo not given in full)', 'COLO 205 colon', '=', 10.3),
  ('Cc1c(CNc2ccc(Cl)c(C(=O)NC(CC(=O)O)C(=O)O)c2)ccc2nc(N)nc(N)c12 (stereo not given)', 'COLO 205 colon', '>', 1000),
  ('CC(=O)Oc1c(-c2ccccc2)[nH]c2cc([N+](=O)[O-])c(/C(Cl)=C/c3ccccc3)cc12', 'COLO 205 colon', '=', 19.6);

====

- Tested on: HOP-18 NSCLC
- experimental.details: NCI tumour cell line growth inhibition, 48 h
recorded.endpoint: TGI

INSERT INTO assay_data (molecule, value_measured) VALUES
  ('c1ccc([CH2][Sn]([CH2]c2ccccc2)([S]c2cccc3cccnc23)[S]c2cccc3cccnc23)cc1', '0.84 µM'),
  ('O=c1[nH]nc(-c2ccccc2)c(-c2ccccc2)c1-n1nc(-c2ccccc2)c2ccccc2c1=O', '> 100 µM'),
  ('CCCCNC(=S)Nn1c(-c2ccccc2)nc2ccccc2c1=O', '> 100 µM'),
  ('CCCCN(CCCC)C(=Nc1ccccc1)N(CCCC)CCCC', '6.39 µM'),
  ('O=C(Nc1nc2ncn(CCOC(=O)c3ccccc3)c2c(=O)[nH]1)c1ccccc1', '> 100 µM'),
  ('CC(=O)OCC1OC(n2cc(F)c(=O)[nH]c2=O)C(OC(C)=O)C1OC(C)=O (stereo not given)', '> 100 µM'),
  ('CCS[C@H]1NC(=O)C1[C@H](C)O[Si](C)(C)C(C)(C)C (stereo not given in full)', '> 100 µM'),
  ('C=Nc1ccc([N+](=O)[O-])cc1', '> 92.9 µM'),
  ('CCN(CC)CCN(C)CC(C)(C)C(=O)/C=C/c1ccccc1', '30.6 µM'),
  ('C=CCCc1cc(OC)ccc1CN(C)C(C)(C)CO', '> 100 µM');
